Target Entity: human type 2 5α-reductase (Homo sapiens)
Construct: considered interchangeable
Test Method Notes: Structural requirements / inhibition constants and IC50 on type 2 enzyme (Examples 9 and 11)
Condition Label: Table 3, human type 2
Items are presented alongside their recorded IC50.

Compound | Target Entity | Unit Of Measure | Comparison Operator | IC50
C[C@]12C=CC(=O)N[C@@H]1CC[C@@H]1[C@@H]2CC[C@]2(C)C(CC#N)CC[C@@H]12 (stereo partly shown) | human type 2 5α-reductase (Homo sapiens) | µM | = | 8.4
COC(C)C1CC[C@H]2[C@@H]3CC[C@H]4NC(=O)C=C[C@]4(C)[C@H]3CC[C@]12C (stereo partly shown) | human type 2 5α-reductase (Homo sapiens) | µM | = | 5.4
C[C@]12C=CC(=O)N[C@@H]1CC[C@@H]1[C@@H]2CC[C@]2(C)C(CCC(=O)Nc3ccncc3)CC[C@@H]12 (stereo partly shown) | human type 2 5α-reductase (Homo sapiens) | µM | = | 3.5
CC1C[C@H]2NC(=O)C=C[C@]2(C)[C@H]2CC[C@]3(C)CC(Oc4ccc(Cl)cc4)C[C@H]3[C@H]12 (stereo partly shown) | human type 2 5α-reductase (Homo sapiens) | µM | > | 10

---

Test Method Notes: Nonenzymatic decomposition / stability of NADP-dihydrofinasteride adduct
Format: physicochemical
Condition Label: water, neutral pH, 100° C.; read-out: halflife of decomposition

Molecule | half-life
CC(C)(C)NC(=O)[C@H]1CC[C@H]2[C@@H]3CC[C@H]4NC(=O)C(C5C=CN([C@@H]6O[C@H](COP(=O)(O)OP(=O)(O)OC[C@H]7O[C@@H](n8cnc9c(N)ncnc98)[C@H](OP(=O)(O)O)[C@@H]7O)[C@@H](O)[C@H]6O)C=C5C(N)=O)C[C@]4(C)[C@H]3CC[C@]12C (stereo partly shown) [NADP-dihydrofinasteride adduct] | 20 min

---

Test Method Notes: Nonenzymatic decomposition / stability of NADP-dihydrofinasteride adduct
Assay type: physicochemical
Condition Label: 0.1m ammonium formate, pH 4, 0.1M ammonium formate, pH 4.00, 100° C.; read-out: conversion to [^14 C]-dihydrofinasteride at infinite time
Result Type: degraded (%)

Molecule | Unit Of Measure | Val
CC(C)(C)NC(=O)[C@H]1CC[C@H]2[C@@H]3CC[C@H]4NC(=O)C(C5C=CN([C@@H]6O[C@H](COP(=O)(O)OP(=O)(O)OC[C@H]7O[C@@H](n8cnc9c(N)ncnc98)[C@H](OP(=O)(O)O)[C@@H]7O)[C@@H](O)[C@H]6O)C=C5C(N)=O)C[C@]4(C)[C@H]3CC[C@]12C (stereo partly shown) [NADP-dihydrofinasteride adduct] | % | 88

---

Test Method Notes: Nonenzymatic decomposition / stability of NADP-dihydrofinasteride adduct
Format: physicochemical
Condition Label: pH 7.2, pH 7.2, 37° C.; read-out: completion of formation of [^14 C]dihydrofinasteride at infinite time

Compound | degraded / %
CC(C)(C)NC(=O)[C@H]1CC[C@H]2[C@@H]3CC[C@H]4NC(=O)C(C5C=CN([C@@H]6O[C@H](COP(=O)(O)OP(=O)(O)OC[C@H]7O[C@@H](n8cnc9c(N)ncnc98)[C@H](OP(=O)(O)O)[C@@H]7O)[C@@H](O)[C@H]6O)C=C5C(N)=O)C[C@]4(C)[C@H]3CC[C@]12C (stereo partly shown) [NADP-dihydrofinasteride adduct] | 75

---

Items are presented alongside their recorded kon.
Target Entity: human type 2 5α-reductase (Homo sapiens)
Construct: host or cells: native human prostate tissue or recombinant from a baculovirus expression system; considered interchangeable
Sequence (P31213 1-254): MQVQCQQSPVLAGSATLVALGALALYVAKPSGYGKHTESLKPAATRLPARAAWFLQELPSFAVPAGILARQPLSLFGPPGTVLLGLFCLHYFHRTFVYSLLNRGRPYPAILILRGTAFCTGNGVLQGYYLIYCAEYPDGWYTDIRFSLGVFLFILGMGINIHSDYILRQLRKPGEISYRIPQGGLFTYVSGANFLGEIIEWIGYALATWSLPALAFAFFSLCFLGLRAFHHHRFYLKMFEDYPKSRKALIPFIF
Test Method Notes: Structural requirements / inhibition constants and IC50 on type 2 enzyme (Examples 9 and 11)
Format: biochemical
Condition Label: Table 3, human type 2; read-out: kon
Protocol: The human isozymes were employed exclusively in this research. The native isozymes were from scalp (type 1 ) or prostate (type 2) tissues, and the recombinant forms were produced by a baculovirus expression system. Except where specified, all data refer to the prostate (type 2) isozyme, the primary target of finasteride. All of the experiments described in this application were also conducted with the recombinant type 1 isozyme, either in parallel or for confirmation. […]

Compound | kon, M⁻¹ s⁻¹
C[C@]12C=CC(=O)N[C@@H]1CC[C@@H]1[C@@H]2CC[C@]2(C)C(CCC(=O)Nc3ccncc3)CC[C@@H]12 (stereo partly shown) | 140
C[C@]12C=CC(=O)N[C@@H]1CC[C@@H]1[C@@H]2CC[C@]2(C)C(CC#N)CC[C@@H]12 (stereo partly shown) | 140
CC1C[C@H]2NC(=O)C=C[C@]2(C)[C@H]2CC[C@]3(C)CC(Oc4ccc(Cl)cc4)C[C@H]3[C@H]12 (stereo partly shown) | 50
COC(C)C1CC[C@H]2[C@@H]3CC[C@H]4NC(=O)C=C[C@]4(C)[C@H]3CC[C@]12C (stereo partly shown) | 130

---

Test Method Notes: Nonenzymatic decomposition / stability of NADP-dihydrofinasteride adduct
Assay type: physicochemical
Condition Label: 0.1m mops, pH 7.2, 235 nM, 0.1M MOPS, pH 7.2, 37° C.; read-out: conversion at infinite time, by nonlinear regression

Compound | degraded at 0.235 µM
CC(C)(C)NC(=O)[C@H]1CC[C@H]2[C@@H]3CC[C@H]4NC(=O)C(C5C=CN([C@@H]6O[C@H](COP(=O)(O)OP(=O)(O)OC[C@H]7O[C@@H](n8cnc9c(N)ncnc98)[C@H](OP(=O)(O)O)[C@@H]7O)[C@@H](O)[C@H]6O)C=C5C(N)=O)C[C@]4(C)[C@H]3CC[C@]12C (stereo partly shown) [NADP-dihydrofinasteride adduct] | 75.4%

---

Items are presented alongside their recorded kon.
Target Entity: human type 1 5α-reductase (Homo sapiens, UniProt P18405)
Construct: made in house
Sequence (P18405 1-259): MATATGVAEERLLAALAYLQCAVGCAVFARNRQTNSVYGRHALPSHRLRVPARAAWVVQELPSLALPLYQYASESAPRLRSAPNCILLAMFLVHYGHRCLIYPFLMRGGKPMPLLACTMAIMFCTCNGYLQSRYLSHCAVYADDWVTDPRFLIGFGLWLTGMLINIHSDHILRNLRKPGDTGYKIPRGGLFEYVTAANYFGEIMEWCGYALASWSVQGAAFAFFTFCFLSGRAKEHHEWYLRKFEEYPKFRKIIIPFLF
Test Method Notes: Inhibition of human type 1 enzyme (Example 11)
Format: biochemical
Condition Label: Table 2, human type 1
Experimental: Permutations of three structural changes to finasteride were tested for their ability to abolish time-dependent inhibition. All compounds were tested at their apparent IC50 values at pH 5.5 and 37° C. Those displaying slow-binding inhibition are identified by kon values, which were determined as described for finasteride above. Those for which no time-dependent inhibition was found are identified by apparent Ki values. […]

Molecule | Unit Of Measure | kon
C[C@]12C=CC(=O)N[C@@H]1CC[C@@H]1[C@@H]2CC[C@]2(C)C(CC#N)CC[C@@H]12 (stereo partly shown) [Compound 13] | M⁻¹ s⁻¹ | 180000
COC(C)C1CC[C@H]2[C@@H]3CC[C@H]4NC(=O)C=C[C@]4(C)[C@H]3CC[C@]12C (stereo partly shown) [Compound 14] | M⁻¹ s⁻¹ | 200000
CC1C[C@H]2NC(=O)C=C[C@]2(C)[C@H]2CC[C@]3(C)CC(Oc4ccc(Cl)cc4)C[C@H]3[C@H]12 (stereo partly shown) [Compound 11] | M⁻¹ s⁻¹ | 170000
C[C@]12C=CC(=O)N[C@@H]1CC[C@@H]1[C@@H]2CC[C@]2(C)C(CCC(=O)Nc3ccncc3)CC[C@@H]12 (stereo partly shown) [Compound 12] | M⁻¹ s⁻¹ | 170000
